assay: modulators of S6 phosphorylation in cells, primary screen, cell-based, A549, cytoblot, luminescence, serum-stimulated (AID 1158); conditions: A549 phospho-S6 cytoblot, 5 h, higher = more signal;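 also: serum-stimulated A549 lung adenocarcinoma cells; signal is phosphorylated S6 detected by cytoblot immunostaining with HRP secondary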
# maps each entry to its z-score
Respond using a number only.

Worked set:
# COMPOUND, z-score
rows = [
    ("O=C1N(CCS(=O)(=O)c2ccccc2)Cc2ccccc2[C@@H]2OC(c3ccc(OCCCO)cc3)=N[C@]12CCS(=O)(=O)c1ccccc1", -0.355),
    ("CC(C)CNC(=O)[C@@]1(c2ccc([N+](=O)[O-])cc2)CC(=O)N(C2CCCCC2)[C@@H]1c1ccc(CO)cc1", 0.358),
    ("CN(C)C(=O)[C@@]1(CCC(=O)OC(C)(C)C)N=C(c2ccc(OCCCO)cc2)O[C@H]1c1ccccc1CN=[N+]=[N-]", -0.25),
    ("CCOC(=O)C[C@H]1[C@H](OC(=O)c2ccccc2-c2ccccc2)[C@@H](NC(=O)c2ccc3ccccc3n2)c2cc(OCCCO)ccc2N1C(=O)c1ccccc1", -0.35),
    ("CC(C)=CCCC(C)=CC(O)C1C=CC2C(=O)N(c3ccccc3)C(=O)C2N1Nc1ccccc1F (stereo not given)", -0.162),
    ("C=CCN1C(=O)[C@]2(O[C@H](CCO)[C@@H]([Si](C)(C)c3ccc(OC)cc3)[C@@H]2C)c2cc(N3C(=O)COc4ccccc43)ccc21", 2.03),
    ("Cc1ccccc1C(O)C1C=CC2C(=O)N(c3ccccc3)C(=O)C2N1Nc1ccc([N+](=O)[O-])cc1 (stereo not given)", -0.483),
    ("COc1ccc([Si](C)(C)[C@H]2[C@H](CCO)O[C@@]3(C(=O)N(Cc4ccccc4)c4ccc(N5CCOC5=O)cc43)[C@@H]2C)cc1", 0.577),
]

[Q] Return reported z-score; argument: O=C1OCCC=C[C@H]2OC34C=CCN(c5ccc(Cl)cc5)C(=O)[C@H]3N(CCCCCCO)C(=O)[C@@H]4C12 (stereo not given in full)
[A] 0.551

[Q] GET /values?readout=z-score&item= CN1C(=O)C2C(C1=O)C1C=C(CCCO)C2C(c2cccs2)N1Cc1cc2c(cc1Br)OCO2 (stereo not given)
[A] 0.791

[Q] Report z-score for COc1cc(NN2C(C(O)c3ccc(I)cc3)C=CC3C(=O)N(c4ccccc4)C(=O)C32)cc(OC)c1OC (stereo not given) please.
[A] 1.52

[Q] Returns the measured z-score for the input compound. Input: CC(C)c1ccc(NN2C(C(O)Cc3ccccc3)C=CC3C(=O)N(c4ccccc4)C(=O)C32)cc1 (stereo not given)
[A] -1.27

[Q] Which z-score is listed for C=CCNC(=O)[C@@H]1[C@H]2C(=O)O[C@H](c3ccccc3)[C@H](c3ccccc3)N2[C@H](c2ccc(OCCO)cc2)[C@@]12C(=O)N(C(=O)OCCOC)c1ccc(C#CCCO)cc12 ?
[A] 2.25

[Q] Quick one: z-score for O=C1[C@@]23C=C(Br)[C@H](C[C@@H]2COC3)[C@@]12CO2 ?
[A] -0.679

----------
assay: small-molecule binders of probe aNOTCH3, primary screen, biochemical, small-molecule microarray, 635/667 nm fluorescence (AID 1120); details: higher = more signal;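 also: probe is a biotin-tagged antibody raised against NOTCH3 rather than NOTCH3 protein; score merges spot fluorescence near 667 nm with spot signal to noise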
Measured composite z-score of individual entries
Write the number on its own, no unit after it.

A selection of reference data follows.
# MOLECULE, EXPERIMENTAL_ENDPOINT, NUMERIC_VALUE
rows = [
    ("CC(C)CNC(=O)[C@@H]1c2ccccc2C(=O)N(C2CCCCC2)[C@H]1c1ccc(CO)cc1", "composite z-score", -0.159),
    ("COc1cc2c(cc1OC)CN(C(=O)[C@@H]1[C@H]3C(=O)O[C@H](c4ccccc4)[C@H](c4ccccc4)N3[C@H](c3ccc(O)cc3)[C@@]13C(=O)Nc1ccc(C#CCCO)cc13)CC2", "composite z-score", -0.0699),
]

[Q] Name the reported composite z-score value associated with the molecule C=CCC(OC(C)=O)[C@@H]1[C@@H](N(Cc2cccc3ccccc23)C(=O)Cc2ccc(F)cc2)c2cc(OCCCO)ccc2N1C(=O)c1ccc(-c2ccccc2)cc1 (some centres undefined)
[A] 0.0847

[Q] May I ask what composite z-score has been recorded for C=C(/C(=C/C[C@@H](OC(C)=O)c1ccc(OCCO)cc1)c1cc(C(=O)OC)ccc1OC)C(C)C ?
[A] -0.0417

[Q] Query (molecule): COC(=O)C1=CC(CCCO)=CC(c2ccc(CN3CCCC3)cc2)N(Cc2cc3c(cc2Br)OCO3)C=C1C(=O)OC (centres undefined) ; field requested: composite z-score
[A] 0.477

[Q] Find the recorded composite z-score belonging to COCCOC(=O)N1C(=O)[C@@]2(c3cc(C#CCC(C(=O)OC)C(=O)OC)ccc31)[C@H](c1ccc(O)cc1)N1[C@H](c3ccccc3)[C@H](c3ccccc3)OC(=O)[C@H]1[C@@H]2C(=O)NC[C@H](O)c1ccccc1 and report it.
[A] -0.196

[Q] What does the record list as composite z-score for CC(C)C(=C=CC[C@H](O)c1cccc(OCCO)c1)CCO ?
[A] -0.173

[Q] Requested read-out: composite z-score. Entry: Cc1ccccc1C(O)C1C=CC2C(=O)N(c3ccccc3)C(=O)C2N1Nc1ccc([N+](=O)[O-])cc1 (centres undefined)
[A] 0.116

[Q] composite z-score for C=CCC(OC(C)=O)[C@@H]1[C@@H](N(Cc2ccc(-c3ccccc3)cc2)C(=O)Cc2ccc(F)cc2)c2cc(OCCCO)ccc2N1C(=O)Cc1ccc2ccccc2c1 (some centres undefined) ?
[A] -0.0931
